Measured IC50 (PRMT5 (Homo sapiens (Human), UniProt O14744))
assay-metric: IC50 (nM)

item-smiles	IC50 (nM)
CC(C)Oc1nc(NC2CCN(C(=O)c3cccs3)CC2)cc(C(=O)N2CC[C@@H](N3CCc4ccccc4C3)[C@H](O)C2)n1	3.9
O=C(c1cc(NC2CCN(C(=O)c3cccs3)CC2)nc(OC2CCCC2)n1)N1CC[C@@H](N2CCc3ccccc3C2)[C@H](O)C1	4.5
Cc1ccc(C(=O)N2CCC(Nc3cc(C(=O)N4CC[C@@H](N5CCc6ccccc6C5)[C@H](O)C4)nc(N4CCCC4)n3)CC2)cc1	4.7

###

Measurement record for PRMT5 (Homo sapiens (Human)); quantity recorded: IC50.
Where a name gives a salt, the structure may show the parent alone.
assay-metric: IC50 (nM)

compound	experimental-system	IC50 / nM
CCC(CC)Oc1nc(NC2CCN(C(=O)c3ccccc3)CC2)cc(C(=O)N2CC[C@@H](N3CCc4ccccc4C3)[C@H](O)C2)n1	PRMT5 (Homo sapiens (Human))	5.2

[P] CC(C)COc1nc(NC2CCN(C(=O)c3cnn(C)c3)CC2)cc(C(=O)N2CC[C@@H](N3CCc4ccccc4C3)[C@H](O)C2)n1
[Q] CC(=O)N1CCC(Oc2cc(C(=O)N3CC[C@H](N4CCc5ccccc5C4)[C@@H](O)C3)ncn2)CC1 (relative stereo)
[R] COc1nc(NC2CCN(C(=O)c3ccc(C)cc3)CC2)cc(C(=O)N2CC[C@@H](N3CCc4ccccc4C3)[C@H](O)C2)n1 [Example 392, hydrochloride]
[S] CC(=O)N1CCC(Nc2cc(C(=O)N3CC[C@@H](N4CCc5ccccc5C4)[C@H](O)C3)nc(C)n2)CC1 [Control Example 2]
[T] [2H]C1([2H])CN([C@@H]2CCN(C(=O)c3cc(NC4CCN(C(=O)c5ccccc5)CC4)nc(OC(C)C)n3)C[C@H]2O)Cc2ccccc21
Given 5 compounds, produce a descending ranking by IC50. Lab note: record answer as labels in requested order. Q, S, T, P, R
(Q: 65 nM, S: 36 nM, T: 7.9 nM, P: 4.5 nM, R: 2.8 nM)
